Measured values drawn from ChEMBL document CHEMBL1201862 for this set.

- System: ACHN
- Assay Info: NCI tumour cell line growth inhibition, 48 h
The source made the active and inactive calls. Rule as the data show it: active = GI50 up to about 1.1 µM and inactive = higher.
Hello, when you answer, please use one of the following outcomes: 1 (active), -1 (inactive)

Worked set:
INSERT INTO assay_data (compound, answer_label) VALUES
  ('CC1(C)OCC(C2OC(C)(C)OC2[C@H]2O[C@@]3(O)[C@H]4[C@H](C=CC[C@@H]42)[C@@H](OCc2ccccc2)[C@H](OCc2ccccc2)[C@H]3OCc2ccccc2)O1 (some centres not stated)', -1),
  ('COC(C/C(=C/CO[Si](C(C)C)(C(C)C)C(C)C)C(=O)N(C(=O)OC(C)(C)C)c1ccccc1I)OC', -1),
  ('CSC1=C(c2ccc(Cl)cc2)SC(N2CCCCC2)N1c1ccc([N+](=O)[O-])cc1 (configuration not stated)', -1),
  ('C#CC1(OC(C)=O)CCC2C3CC=C4C=C(OC(C)=O)CCC4(C)C3CCC21C (configuration not stated)', -1),
  ('COc1cc2ccnc3c2c(c1OC)-c1coc(SC)c1-3', -1),
  ('O=c1[nH]/c(=C/c2ccc(OCc3ccccc3)cn2)c(=O)[nH]/c1=C/c1ccccc1', 1);

Please let me know the test result on file for Cc1nc2c(nc1C)C(=O)c1cc(O)ccc1C2=O .
-1

Please let me know the test result on file for COc1cc(Cl)cc(O)c(=O)c1OC .
-1

====

molecules and their reported GI50
- Test system: RPMI-8226
- Assay Info: NCI tumour cell line growth inhibition, 48 h
Active and inactive are the calls of the source. No stated cut-off is given here; in the data, active = GI50 up to about 1.1 µM and inactive = higher.

// below: answered molecules
INSERT INTO measurements (molecule, test_target, quantity_kind, value_observed) VALUES
  ('CCOC(=O)C(CC/C=C\c1ccccc1)N1CCC[C@H]1C(=O)OC (stereo not given in full)', 'RPMI-8226', 'GI50', '29.7 µM (inactive)'),
  ('CC1(C)CC(=O)C=C(NC(=O)c2ccccc2)C1', 'RPMI-8226', 'GI50', '> 100 µM (inactive)'),
  ('COC1=CC(=O)[C@]2(C)[C@H](C1=O)C(C)[C@H]2c1ccc(OC)cc1 (stereo not given in full)', 'RPMI-8226', 'GI50', '> 100 µM (inactive)'),
  ('C=C1C(=O)O[C@H]2C(=O)[C@H](C)CCC/C(C)=C/CC[C@@]3(C)O[C@@H]3C[C@@H]12', 'RPMI-8226', 'GI50', '2.25 µM (inactive)');

Continue with the next molecule.
What does the data say about its GI50? Entry: C=C1CC2C[C@H](OS(=O)(=O)c3ccc(C)cc3)C(C1)N2C (stereo not given in full)
> 100 µM (inactive)

====

- Test system: UACC-62
- Assay Info: NCI tumour cell line growth inhibition, 48 h
The source made the active and inactive calls. Cut-off read from the data, not from the text of the source: active = GI50 up to about 1.1 µM and inactive = higher.
Quantity Kind: GI50

// below: answered compounds
INSERT INTO results (compound, quantity_kind, value_observed) VALUES
  ('COc1ccccc1N(CN1C(=O)CCC1C(=O)O)C(C)=O (stereo unspecified)', 'GI50', '> 100 µM (inactive)'),
  ('Clc1ccc2c(Cl)ncnc2c1', 'GI50', '> 100 µM (inactive)'),
  ('COc1cc(C2SCC(=O)N2Cc2ccccc2)cc(OC)c1OC (stereo unspecified)', 'GI50', '97.9 µM (inactive)'),
  ('Cc1cc(C)nc(NS(=O)(=O)c2ccc(Nc3c4ccc(Cl)cc4nc4c(C(=O)NCCN(C)C)cccc34)cc2)n1', 'GI50', '> 100 µM (inactive)'),
  ('c1ccc(CSCCc2ccncc2)cc1', 'GI50', '> 100 µM (inactive)'),
  ('CC(C)[C@](O)(C(=O)OCC1=CC[N+]2([O-])CC[C@@H](O)[C@@H]12)[C@H](C)O (stereo partly specified) [INDICINE N-OXIDE]', 'GI50', '7210 µM (inactive)'),
  ('Cc1nn(-c2ccccc2)c2c1CC(=O)Nc1ccccc1-2', 'GI50', '0.521 µM (active)'),
  ('O=C1C=C(NCCOCCO)C(=O)c2c(O)ccc(O)c21', 'GI50', '14.5 µM (inactive)');

What does the data say about its GI50? Entry: Cc1c2oc(=O)c(C#N)cc2c2ccccn12
> 100 µM (inactive)

What does the data say about its GI50? Entry: Cn1c2ccccc2c(=O)c2c([N+](=O)[O-])ccc(NCCN)c21
14.9 µM (inactive)

What does the data say about its GI50? Entry: COC(=O)c1cc(O)ccc1O [METHYL 2,5-DIHYDROXYBENZOATE]
> 100 µM (inactive)

====

- System: 786-0
- Assay Info: NCI tumour cell line growth inhibition, 48 h
Calls of active or inactive are those of the source. Rule as the data show it: active = GI50 up to about 1.1 µM and inactive = higher.
Hello, when you answer, please use one of the following outcomes: 1 (active), -1 (inactive)

INSERT INTO measurements (compound, test_target, answer_label) VALUES
  ('CCCC(=O)Nc1cc(/C=C/C(=O)N2CC(CCl)c3c2cc([N+](=O)[O-])c2ccccc32)n(C)c1 (centres undefined)', '786-0', -1);

Please let me know the test result on file for COc1ccc(C[C@H](N)C(=O)NC2C(CO)OC(n3cnc4c(N(C)C)ncnc43)C2O)cc1 (some centres undefined) .
1

Please let me know the test result on file for Cc1c(F)c(N)c2c(=O)cc(-c3ccc(NC(=O)CN(C)C)c(F)c3)oc2c1F .
-1

Please let me know the test result on file for COc1ccc(/C=C/C(=O)c2cc(C(C)(C)C)c(O)c(C(C)(C)C)c2)cc1OC .
-1

Please let me know the test result on file for CSc1c(C(=O)Nc2ccc(Cl)cc2)c(N)nn1-c1ccccc1 .
-1

Please let me know the test result on file for CC1=CC(=O)CC(C)(C)C1/C=C/C(C)=C/C=C/C(C)=C/C=C/C=C(C)/C=C/C=C(C)/C=C/C1=C(C)CC(O)CC1(C)C (centres undefined) .
-1

Please let me know the test result on file for COc1cccc2c1OC1(C=C2)Oc2ccccc2C(=O)N1C (centres undefined) .
-1

Please let me know the test result on file for COc1ccc(S(=O)(=O)N2C(=O)CCC2C(=O)NN)cc1 (centres undefined) .
-1

Please let me know the test result on file for Cc1ccc(-n2c3nc(=O)n(C)c(=O)c-3nc3ccccc32)cc1 .
-1

====

- Test system: HCT-116
- Assay Info: NCI tumour cell line growth inhibition, 48 h
Calls of active or inactive are those of the source. Rule as the data show it: active = GI50 up to about 1.1 µM and inactive = higher.
Quantity Kind: GI50

INSERT INTO results (compound, test_target, value_observed) VALUES
  ('Oc1ccc([Te]CCNCC[Te]c2ccc(O)cc2)cc1', 'HCT-116', '5.96 µM (inactive)'),
  ('O=C1CC(c2ccccc2)C2(C(=O)NC(=S)NC2=O)C(c2ccccc2)C1 (stereo unspecified)', 'HCT-116', '> 75 µM (inactive)'),
  ('COc1cc(Cn2c3c(c4c(CN(C)C)c(O)ccc42)C(=O)c2ccccc2C3=O)cc(OC)c1', 'HCT-116', '13.6 µM (inactive)');

What does the data say about its GI50? Entry: [N-]=[N+]=Nc1c([N+](=O)[O-])c(=O)n2c3c(cccc13)CCC2
15.6 µM (inactive)

What does the data say about its GI50? Entry: CCOC(=O)C1CC/C(=C(/C#N)C(=O)OC)N1 (stereo unspecified)
> 100 µM (inactive)

What does the data say about its GI50? Entry: O=[N+]([O-])/C=C/c1cn(CCCCCCCCCCCCn2cc(/C=C/[N+](=O)[O-])c3ccccc32)c2ccccc12
> 100 µM (inactive)

====

- Tested on: HCT-116
- Assay Info: NCI tumour cell line growth inhibition, 48 h
The source made the active and inactive calls. Rule as the data show it: active = GI50 up to about 1.1 µM and inactive = higher.
compounds and their reported GI50

// below: answered compounds
INSERT INTO results (compound, test_target, quantity_kind, value_observed) VALUES
  ('Cc1ccc(NCC(=O)N2CC(=O)Nc3ccccc32)cc1', 'HCT-116', 'GI50', '> 100 µM (inactive)'),
  ('C=CCn1c(=O)c2ccccc2[n+]2c(C)c(C(=O)OCC)sc12', 'HCT-116', 'GI50', '> 100 µM (inactive)'),
  ('Nc1nc2c(ncn2C2C=CC(COS(N)(=O)=O)C2)c(=O)[nH]1 (centres undefined)', 'HCT-116', 'GI50', '> 100 µM (inactive)');

Continue with the next compound.
What does the data say about its GI50? Entry: Cc1cn(C2CCC(CO)(CF)O2)c(=O)[nH]c1=O (centres undefined)
> 100 µM (inactive)

====

- System: CAKI-1
- Assay Info: NCI tumour cell line growth inhibition, 48 h
The source made the active and inactive calls. Cut-off read from the data, not from the text of the source: active = GI50 up to about 1.1 µM and inactive = higher.
Hello, when you answer, please use one of the following outcomes: 1.0 (active), 0.0 (inactive)

Worked set:
INSERT INTO assay_data (compound, answer_label) VALUES
  ('Nc1nc2c(ncn2C2C=CC(COS(N)(=O)=O)C2)c(=O)[nH]1 (stereo not given)', 0.0),
  ('CCCCN(CCCC)C(=O)C(=O)C(C(=O)C(=O)OC)c1nc2ccccc2o1 (stereo not given)', 0.0);

Please let me know the test result on file for O=C(O)CSc1nnc(/C=C/c2ccccc2)[nH]1 .
0.0

Please let me know the test result on file for COc1c(C)c(C/C=C(\C)CC/C=C(\C)CC/C=C(\C)CCC=C(C)C)c(OC)c2ccccc12 .
0.0
